Tested on: E. coli
experiment_summary: Gram negative MIC protocol (OD600, LB, 24 h)
condition_label: Escherichia coli, read-out: MIC WT E. coli LB Media, wild-type E. coli, LB media, 24 h, OD600
Recorded MIC values for a group of compounds are listed next.

Record excerpt, results attached:
CC(CC1CCCCC1)NCc1ccccc1OCc1cn2ccccc2n1 (centres unmarked): 91 µM
COC(=O)c1occc1COc1ccccc1CNC(C)CC1CCCCC1 (centres unmarked): 150 µM
CC(CC1CCCCC1)NCc1ccccc1OC1CCCCC1C (centres unmarked): > 150 µM
CC(CC1CCCCC1)NCc1ccccc1CCCO (centres unmarked): 91 µM
COc1cccc(CNCCC2CCCCC2)c1: > 150 µM

For the compound CC(CC1CCCCC1)NCc1ccccc1OCCN1CCOCC1 (centres unmarked) , report MIC.
> 150 µM

For the compound Cc1cc(COc2ccccc2CNC(C)CC2CCCCC2)no1 (centres unmarked) , report MIC.
> 150 µM

For the compound CC(CC1CCCCC1)NCc1ccccc1OCc1cscn1 (centres unmarked) , report MIC.
> 150 µM

For the compound COc1cccc(OCCOc2ccccc2CNC(C)CC2CCCCC2)c1 (centres unmarked) , report MIC.
150 µM

For the compound CC(CC1CCCCC1)NCc1ccccc1OCC(=O)NC(=O)NC(C)(C)C (centres unmarked) , report MIC.
> 150 µM

For the compound CC1CCCN(C(=O)COc2ccccc2CNC(C)CC2CCCCC2)C1 (centres unmarked) , report MIC.
> 150 µM

For the compound O=C1Cc2ccccc2CN1CCC1CCCCC1 , report MIC.
> 150 µM

For the compound COC(=O)C(C)Oc1ccccc1CNC(C)CC1CCCCC1 (centres unmarked) , report MIC.
> 150 µM

For the compound CC(CC1CCCCC1)NCc1ccccc1OCc1ccccc1F (centres unmarked) , report MIC.
91 µM

* * *

Recorded MIC values for a group of compounds are listed next.
Test system: E. coli
experiment_summary: Gram negative MIC protocol (OD600, LB, 24 h)
condition_label: Escherichia coli, read-out: MIC E. coli delta-TolC LB Media, E. coli delta-TolC, LB media, OD600

CC(CC1CCCCC1)NCc1ccccc1CS(=O)(=O)NC1CCN(C)CC1 (stereo not shown): 33 µM
FC1(F)C2CCCCC21CCNCc1ccccc1 (stereo not shown): > 300 µM
CC(CNCc1ccccc1)C1CCCC1 (stereo not shown): > 150 µM
c1ccc(CNCCc2ccc3c(c2)CCO3)cc1: > 150 µM
CC(C)(CNCc1ccccc1)C1=CCCC1: > 150 µM
CC(CC1CCCCC1)NCc1ccccc1CC(N)C(=O)O (stereo not shown): > 150 µM

For the compound Clc1cc(CCNCc2ccccc2)cc2c1OCCO2 , report MIC.
> 150 µM

For the compound c1ccc(CNCCc2ccc3c(c2)OCO3)cc1 , report MIC.
> 150 µM

For the compound c1ccc(CNCCC2CCCCC2)cc1 , report MIC.
85 µM

* * *

Recorded MIC values for a group of compounds are listed next.
Test system: E. coli
experiment_summary: Gram negative MIC protocol (OD600, LB, 24 h)
condition_label: Escherichia coli, read-out: MIC E. coli delta-TolC LB Media, E. coli delta-TolC, LB media, OD600

CC(C)(Cc1ccc(C(F)(F)F)cc1)NCc1ccccc1 [B93]: > 150 µM
OC(CNCc1ccccc1)c1cccc2ccccc12 (stereo not shown) [B193]: 300 µM
O=C(O)C(CC1CCCCC1)NCc1ccccc1 (stereo not shown) [B180]: > 300 µM

Let's switch to this compound now.
# return MIC of OC(CNCc1ccccc1)c1ccc2ccccc2c1 (stereo not shown) [B138] (system: E. coli)
> 150 µM
